Target: EGFR L858R (NCI-H3255) (Homo sapiens, UniProt P00533, L858R)
Construct: detects endogenous levels of phospho-EGF Receptor (Tyr1068) protein; host or cells: NCI-H3255
Sequence (P00533 25-1210 L858R): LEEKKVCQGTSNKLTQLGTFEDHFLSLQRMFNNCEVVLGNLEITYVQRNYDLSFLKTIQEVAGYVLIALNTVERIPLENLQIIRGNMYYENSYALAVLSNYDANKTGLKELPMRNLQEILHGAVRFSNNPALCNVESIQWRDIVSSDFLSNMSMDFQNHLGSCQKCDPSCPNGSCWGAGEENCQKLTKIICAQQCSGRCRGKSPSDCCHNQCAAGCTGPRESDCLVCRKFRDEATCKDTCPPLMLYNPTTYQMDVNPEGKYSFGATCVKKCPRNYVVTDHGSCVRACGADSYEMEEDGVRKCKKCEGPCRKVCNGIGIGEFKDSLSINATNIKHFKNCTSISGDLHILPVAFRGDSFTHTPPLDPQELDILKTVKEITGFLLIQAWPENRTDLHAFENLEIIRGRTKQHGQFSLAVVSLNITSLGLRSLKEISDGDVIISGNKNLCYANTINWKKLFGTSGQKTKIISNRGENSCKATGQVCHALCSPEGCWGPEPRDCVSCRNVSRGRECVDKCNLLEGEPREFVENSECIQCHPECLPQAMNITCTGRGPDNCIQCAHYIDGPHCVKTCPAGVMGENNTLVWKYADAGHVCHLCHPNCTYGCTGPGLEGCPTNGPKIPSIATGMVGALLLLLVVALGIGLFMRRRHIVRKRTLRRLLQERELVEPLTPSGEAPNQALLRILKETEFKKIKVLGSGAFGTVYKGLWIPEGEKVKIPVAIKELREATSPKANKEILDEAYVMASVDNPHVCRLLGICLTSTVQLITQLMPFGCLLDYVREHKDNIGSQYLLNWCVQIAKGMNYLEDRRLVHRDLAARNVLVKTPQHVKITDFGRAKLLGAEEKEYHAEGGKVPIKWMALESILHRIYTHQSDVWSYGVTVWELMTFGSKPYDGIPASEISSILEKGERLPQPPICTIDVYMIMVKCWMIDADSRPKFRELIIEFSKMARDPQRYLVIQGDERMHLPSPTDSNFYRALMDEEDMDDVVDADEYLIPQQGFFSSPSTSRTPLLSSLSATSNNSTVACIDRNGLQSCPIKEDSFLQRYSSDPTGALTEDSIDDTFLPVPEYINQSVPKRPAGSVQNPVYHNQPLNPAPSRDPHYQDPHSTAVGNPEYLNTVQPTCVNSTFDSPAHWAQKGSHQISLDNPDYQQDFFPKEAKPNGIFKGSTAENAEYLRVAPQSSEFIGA
Experiment: pEGFR Y1068 ELISA assay, NCI-H3255 cells
Assay type: cell-based
Conditions: inhibition of phosphorylation of EGFR at Tyr1068; NCI-H3255 NSCLC cells; 2 hr compound incubation
pIC50: −log10 of the molar value.
READOUT LABEL: pIC50

>>> meas_value("C=CC(=O)N1C[C@@H]2CN(c3nc(Nc4ccc(N5CCN(C)CC5)cc4)c4ncn(C(C)C)c4n3)C[C@@H]2C1 [Example 21]")
8.10

1. C=CC(=O)N[C@@H]1CN(c2nc(Nc3cn(CC)nc3OC)c3ncn(C)c3n2)C[C@H]1F [Example 88]
2. C=CC(=O)N[C@H]1CCN(c2nc(Nc3ccc(N4CCN(C)CC4)cc3)c3ncn(CCO)c3n2)C1 [Example 46]
Hi team, can someone confirm which has the larger pIC50: 1 or 2 ? Thanks. Reply briefly: the label of your chosen item.
1

----------
Biological target: EGFR wildtype, endogenous (A549) (Homo sapiens)
Construct: A549 (EGFR wildtype, endogenous)
Sequence (P00533 25-1210): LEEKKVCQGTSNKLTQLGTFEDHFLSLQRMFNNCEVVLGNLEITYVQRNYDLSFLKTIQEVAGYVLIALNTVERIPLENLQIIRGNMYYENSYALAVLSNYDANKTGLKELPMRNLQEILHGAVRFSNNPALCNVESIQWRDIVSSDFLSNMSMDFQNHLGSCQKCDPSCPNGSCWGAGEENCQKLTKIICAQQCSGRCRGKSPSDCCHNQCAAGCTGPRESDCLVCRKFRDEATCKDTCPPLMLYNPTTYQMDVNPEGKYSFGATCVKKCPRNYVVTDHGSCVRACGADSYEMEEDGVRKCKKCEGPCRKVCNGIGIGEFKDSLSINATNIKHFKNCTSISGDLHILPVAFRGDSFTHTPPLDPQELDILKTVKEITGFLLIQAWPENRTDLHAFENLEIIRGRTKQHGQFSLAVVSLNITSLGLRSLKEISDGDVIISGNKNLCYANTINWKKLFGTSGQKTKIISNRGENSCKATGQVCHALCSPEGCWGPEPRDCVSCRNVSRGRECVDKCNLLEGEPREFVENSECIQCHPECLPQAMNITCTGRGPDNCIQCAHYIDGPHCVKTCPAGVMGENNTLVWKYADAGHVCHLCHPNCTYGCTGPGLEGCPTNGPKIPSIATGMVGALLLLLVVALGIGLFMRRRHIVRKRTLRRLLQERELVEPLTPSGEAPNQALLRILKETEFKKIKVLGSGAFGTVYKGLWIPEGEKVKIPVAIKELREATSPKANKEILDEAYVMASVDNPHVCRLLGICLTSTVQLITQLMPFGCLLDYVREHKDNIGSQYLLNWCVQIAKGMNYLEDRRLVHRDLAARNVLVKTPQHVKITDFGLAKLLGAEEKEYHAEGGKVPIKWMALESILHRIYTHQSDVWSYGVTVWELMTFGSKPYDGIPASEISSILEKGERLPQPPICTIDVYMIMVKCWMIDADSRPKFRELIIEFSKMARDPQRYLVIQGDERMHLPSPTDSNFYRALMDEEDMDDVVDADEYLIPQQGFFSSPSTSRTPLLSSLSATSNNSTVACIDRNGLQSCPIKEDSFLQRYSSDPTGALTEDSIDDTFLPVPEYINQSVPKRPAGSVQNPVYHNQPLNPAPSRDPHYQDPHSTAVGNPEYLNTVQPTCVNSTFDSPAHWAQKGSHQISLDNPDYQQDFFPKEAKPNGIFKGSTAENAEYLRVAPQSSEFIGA
Assay: pEGFR Y1068 ELISA assay, A549 cells
Conditions: inhibition of phosphorylation of EGFR at Tyr1068; A549 NSCLC cells; 2 hr compound incubation, then stimulated 10 min with EGF (40 ng/mL)
READOUT LABEL: IC50 (nM)

>>> meas_value("C=CC(=O)NC1(C)CN(c2nc(Nc3cnn(C)c3)c3ncn(CC)c3n2)C1")
504
>>> meas_value("C=CC(=O)NC1(C)CN(c2nc(Nc3cnn(C4CCN(C)C4)c3)c3ncn(C(C)C)c3n2)C1 (stereo not drawn)")
1150
>>> meas_value("C=CC(=O)N1C[C@@H](F)[C@H](Nc2nc(Nc3ccc(N4CCN(C)CC4)cc3)c3ncn(C)c3n2)C1 (relative stereo)")
119
>>> meas_value("C=CC(=O)N[C@H]1CCN(c2nc(Nc3ccc(N4CCN(C(C)C)CC4)cc3)c3ncn(C(C)C)c3n2)C1")
242
>>> meas_value("C=CC(=O)N[C@H]1CCN(c2nc(Nc3cnn(CCN(C)C)c3)c3ncn(C(C)C)c3n2)C1")
1480

I. C=CC(=O)NC1(C)CN(c2nc(Nc3cnn(C)c3)c3ncn(C(C)C)c3n2)C1
II. C=CC(=O)N(C)[C@H]1C[C@H](Nc2nc(Nc3ccc(N4CCN(C)CC4)cc3)c3ncn(C(C)C)c3n2)C1
III. C=CC(=O)N[C@@H]1CN(c2nc(Nc3cn(CC(C)O)nc3OC)c3ncn(CC)c3n2)C[C@H]1F (stereo partly drawn)
Highest IC50 first, then in falling order down to the smallest. Reply: labels, ordered per the request.
I, III, II
(I: 2440 nM, III: 1220 nM, II: 723 nM)

1. C=CC(=O)N1C[C@@H]2CN(c3nc(Nc4cnn(C)c4)c4ncn(C(C)C)c4n3)C[C@@H]2C1
2. C=CC(=O)N1C[C@@H]2CN(c3nc(Nc4cnn(C)c4)c4ncn(C(C)C)c4n3)C[C@]2(F)C1 (relative stereo)
3. C=CC(=O)N1CC(C)(Nc2nc(Nc3cnn(C)c3)c3ncn(C(C)C)c3n2)C1
4. C=CC(=O)N1CC[C@@H](Nc2nc(Nc3ccc(N4CCN(C)CC4)cc3)c3ncn(C(C)C)c3n2)C1
Highest IC50 first, then in falling order down to the smallest. Reply: labels, ordered per the request.
3, 1, 4, 2
